Target: T1, human chemokine (C-C motif) receptor 8 (CCR8) (human, UniProt P51685 1-355)
T1 construct: On human peripheral blood lymphocytes / PBMC (native) or on human CCR8 GFP-transfected Ba/F3 cells; also called hCCR8; human CCR8
T1 sequence (P51685 whole entry): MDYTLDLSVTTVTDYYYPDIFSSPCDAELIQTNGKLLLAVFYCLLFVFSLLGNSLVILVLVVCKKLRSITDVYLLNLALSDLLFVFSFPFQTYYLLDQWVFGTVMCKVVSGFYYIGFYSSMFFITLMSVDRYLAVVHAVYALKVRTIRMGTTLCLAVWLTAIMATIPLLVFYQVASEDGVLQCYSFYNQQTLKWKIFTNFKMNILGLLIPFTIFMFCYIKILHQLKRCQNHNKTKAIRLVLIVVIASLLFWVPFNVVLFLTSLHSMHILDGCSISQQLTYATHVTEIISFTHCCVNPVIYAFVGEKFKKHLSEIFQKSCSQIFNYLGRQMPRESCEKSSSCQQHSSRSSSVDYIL
Assay: flow cytometry blocking, PBMC CCR8+ CD4+ cells; competitor PE-AB14 (its MFI is read)
READOUT_TYPE: % Blocking (%)
Only the number, expressed in %, is required.

AB10 (antibody, V domains shown, Hybridoma monoclonal; also called antibody 10; clone 10) VH: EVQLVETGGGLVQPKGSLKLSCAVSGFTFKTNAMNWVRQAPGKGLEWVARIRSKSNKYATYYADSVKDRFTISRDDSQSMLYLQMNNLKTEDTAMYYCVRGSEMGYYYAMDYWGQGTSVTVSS VL: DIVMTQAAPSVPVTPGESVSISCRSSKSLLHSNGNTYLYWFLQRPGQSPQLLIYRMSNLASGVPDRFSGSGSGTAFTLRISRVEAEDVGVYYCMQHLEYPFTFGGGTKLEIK = 27.5
AB14 (antibody, V domains shown, Hybridoma monoclonal; also called antibody 14; clone 14) VH: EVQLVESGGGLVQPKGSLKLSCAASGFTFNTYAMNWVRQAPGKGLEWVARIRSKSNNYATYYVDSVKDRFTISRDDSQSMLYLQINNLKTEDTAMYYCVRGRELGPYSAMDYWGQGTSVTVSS VL: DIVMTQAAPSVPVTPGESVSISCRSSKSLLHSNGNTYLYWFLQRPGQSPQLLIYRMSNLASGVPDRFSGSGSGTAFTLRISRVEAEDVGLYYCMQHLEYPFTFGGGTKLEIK = -237

Input line: Item AB5 (antibody, V domains shown, Hybridoma monoclonal; also called antibody 5; clone 5) VH: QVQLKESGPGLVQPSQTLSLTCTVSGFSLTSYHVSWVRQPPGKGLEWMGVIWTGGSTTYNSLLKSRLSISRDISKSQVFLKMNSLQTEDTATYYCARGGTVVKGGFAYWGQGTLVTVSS VL: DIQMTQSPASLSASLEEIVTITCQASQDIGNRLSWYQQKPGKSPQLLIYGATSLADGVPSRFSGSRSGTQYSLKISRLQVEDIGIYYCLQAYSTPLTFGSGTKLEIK : provide % Blocking
Output line: -4.39
